# %Inh values compiled below
system: IRAK3; settings: concentration: 1 μM, replicates: in singlicate; n = 1;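 further: KINOMEscan kinase panel screen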
quantity_measured: %Inh (%)

molecule	unit_abbreviation	data_value
O=C1NC(=O)C(c2ccc(Cl)cc2)=C1Nc1cccc(Cl)c1	%	0
COC(=O)c1cccc(NC(=O)NC2CCN(c3ccnc(Nc4ccc(F)cc4)n3)C2)c1 (stereo not shown)	%	0
COc1ccc(Nc2nccc(N3CCC(NC(=O)C(C)c4ccc(Cl)cc4)CC3)n2)cc1 (stereo not shown)	%	18
O=C1NC(=O)C(c2ccc(Cl)cc2)=C1Nc1ccc(O)cc1	%	0
COc1ccc(-c2coc3ccc(-c4nnc(C)o4)cc23)cc1	%	0
O=c1cc(N2CCOCC2)nc2n(Cc3ccccc3F)ccn12	%	0
Cc1cnc(N)c(/C=C/c2cncc(C(=O)NCCc3ccc(Cl)cc3Cl)c2)c1.Cl	%	0
CNCc1ccc2nc(NC(=O)c3ccc(C(C)(C)C)cc3)cn2c1	%	0
CS(=O)(=O)CCNCc1nc(-c2ccc3ncnc(Nc4ccc(OCc5ccccc5)c(Cl)c4)c3c2)cs1.Cl	%	0
Cn1cnc2c(N)ncnc21	%	0
CN1c2ccc(-c3ccc(C(N)=O)cc3)cc2-c2[nH]ncc2S1(=O)=O	%	10
COc1ccc(CSc2nnc(-c3ccc4ncsc4c3)o2)cc1C(F)(F)F	%	0
COc1ccc2cc(-c3nc(-c4ccccc4C(C)C)[nH]c3-c3ccncc3)ccc2c1	%	0
Cc1ccccc1Cn1ccn2c(=O)cc(N3CCOCC3)nc12	%	0
COc1cccc(NC(=O)Nc2ccc(C)c(-c3ccc(C(=O)Nc4ccncc4)cc3)c2)c1	%	7
COc1ccc(Nc2nccc(N3CCC(NC(=O)C(C)c4ccc(Cl)cc4)C3)n2)cc1 (stereo not shown)	%	10
Cl.Cl.Cl.N#Cc1ccc(CCNc2nccc(-c3cccc(CN4CCNCC4)c3)n2)cc1	%	0
CC(=O)c1c(C)c2cnc(Nc3ccn(C)n3)nc2n(C2CCCC2)c1=O	%	0
O=c1cc(N2CCOCC2)nc2n(Cc3cccc(Cl)c3Cl)c3ccccc3n12	%	15
Fc1ccc(-c2nn3cccc(F)c3c2-c2ccncc2)cc1	%	2
CCCCc1nn2ncccc2c1-c1ccnc(NC2CC2)n1	%	13
COc1nccc(-c2c(-c3ccc(F)cc3)ncn2CCCN2CCOCC2)n1	%	0
CNc1nc(-c2ccc3c(N)n[nH]c3c2)cc(N2C[C@@H](C(=O)Nc3ccccc3)CC[C@H]2C)n1	%	0
Cc1ccc(NC(=O)Nc2ccccc2)cc1-c1ccc(C(=O)Nc2ccncc2)cc1	%	0
Cc1ccc(NC(=O)c2ccc(Cl)cc2)cc1-c1ccc(C(=O)Nc2ccncc2)cc1	%	3
Cc1c(Cn2c3ccccc3n3c(=O)cc(N4CCOCC4)nc23)cccc1C(F)(F)F	%	14
CSc1ccc(-c2nc3n(c2-c2ccncc2)CCC3)cc1	%	0
COc1cc2ncnc(Nc3cccc(Br)c3)c2cc1OC.Cl	%	21
COc1ccc(CSc2nnc(-c3ccc4c(c3)CCO4)o2)cc1	%	0
Cn1cncc1-c1cc2c(Nc3ccc(OCc4ccccc4)cc3)ncnc2cn1	%	1
Cc1ccc(NC(=O)Nc2ccc(Cl)c(C(F)(F)F)c2)cc1-c1ccc(C(=O)Nc2ccncc2)cc1	%	9

Where do these numbers come from? They come from paper PMC5540273.
